- TARGET_DESC: NOX2 (Homo sapiens, UniProt P14598)
- Construct: HL-60 cells expressed the components of NOX2, including gp91, p22^phox, p47^phox, and p67^phox; endogenous in cells; whole cells in A1, membrane preparations in A3 and A4
- Sequence (P14598 whole entry): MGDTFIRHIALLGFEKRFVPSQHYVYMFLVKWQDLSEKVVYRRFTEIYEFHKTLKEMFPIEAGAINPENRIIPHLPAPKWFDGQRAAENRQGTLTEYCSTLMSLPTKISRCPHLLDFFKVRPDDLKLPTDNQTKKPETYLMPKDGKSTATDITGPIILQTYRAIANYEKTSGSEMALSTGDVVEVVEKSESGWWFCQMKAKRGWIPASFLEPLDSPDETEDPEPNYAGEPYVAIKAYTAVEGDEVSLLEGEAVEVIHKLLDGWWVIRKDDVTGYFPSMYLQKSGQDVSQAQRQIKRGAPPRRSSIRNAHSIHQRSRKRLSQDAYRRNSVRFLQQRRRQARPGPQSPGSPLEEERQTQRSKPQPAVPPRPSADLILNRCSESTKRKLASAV
- ASSAY_DETAILS: NADPH oxidase (NOX2) inhibition, DCF fluorescence in PMA-activated neutrophil-differentiated HL-60 cells
- ASSAY_CONTEXT: neutrophil-differentiated HL-60 cells, PMA 0.8 µM, DCF fluorescence, 0.05 to 50 µM
So basically, if IC50 comes in under 20 µM it's 1, and if it's 20 µM or more it's -1.

These solved cases illustrate the format of a correct answer.
COMPOUND: N#C/C(=C\c1ccc(-c2ccc([N+](=O)[O-])cc2)o1)C(=O)c1c[nH]c2ccccc12 [Compound C7]
CLASSIFICATION: -1
//
COMPOUND: N#C/C(=C\c1c(N)oc2ccccc2c1=O)C(=O)c1c[nH]c2ccccc12 [Compound C12]
CLASSIFICATION: -1
//
COMPOUND: N#C/C(=C\c1ccc(N2CCOCC2)cc1)C(=O)c1c[nH]c2ccccc12 [Compound C4]
CLASSIFICATION: 1
//
COMPOUND: Cc1ccc2occ(/C=C(\C#N)C(=O)c3c[nH]c4ccccc34)c(=O)c2c1 [Compound C9]
CLASSIFICATION: 1
//
COMPOUND: CC(C)(C)OC(=O)N1CCN(c2ccc(/C=C(\C#N)C(=O)c3c[nH]c4ccccc34)cc2)CC1 [Compound C15]
CLASSIFICATION: -1

I'd appreciate it if you could check whether Cn1ccnc1/C=C(\C#N)C(=O)c1c[nH]c2ccccc12 [Compound C19] has IC50 smaller than 20 µM.
-1

// next record Cc1nn(-c2ccccc2)c(Cl)c1/C=C(\C#N)C(=O)c1c[nH]c2ccccc12 [Compound C2]
1

// next record N#C/C(=C\c1ccc(-c2ccc(Cl)cc2)o1)C(=O)c1c[nH]c2ccccc12 [Compound C1]
-1

* * *

- ASSAY_DETAILS: MTT cytotoxicity assay
- Assay type: cell-based, human
- ASSAY_CONTEXT: human; neutrophil-differentiated HL-60 cells, 72 h, 100 µM
OBSERVED_PROPERTY: viability at 72 h, 100 µM

Fill in the blank: the reported viability at 72 h, 100 µM of N#C/C(=C\c1cc(-c2ccccc2)on1)C(=O)c1c[nH]c2ccccc12 is ____.
~5%

* * *

- ASSAY_DETAILS: MTT cytotoxicity assay
- Assay type: cell-based, human
- ASSAY_CONTEXT: human; HL-60 cells, 24 h, 10 mM, MTT; read-out: cell viability
Consider the following molecules; for each one, report its viability at 24 h, 10 mM.
One number for each entry, in %.

In the examples that follow, each entry is paired with its recorded viability at 24 h, 10 mM.
CHEM_SMILES: N#C/C(=C\c1ccc(N2CCOCC2)cc1)C(=O)c1c[nH]c2ccccc12
OBSERVED_PROPERTY: viability at 24 h, 10 mM
MEASURED_RESULT: 60

CHEM_SMILES: CC(C)c1ccc2occ(/C=C(\C#N)C(=O)c3c[nH]c4ccccc34)c(=O)c2c1
OBSERVED_PROPERTY: viability at 24 h, 10 mM
MEASURED_RESULT: 60

CHEM_SMILES: N#C/C(=C\c1coc2ccccc2c1=O)C(=O)c1c[nH]c2ccccc12
OBSERVED_PROPERTY: viability at 24 h, 10 mM
MEASURED_RESULT: 60

Note: attention shifts to another entry.
Fill in the blank: the reported viability at 24 h, 10 mM of N#C/C(=C\c1ccc(-c2ccc(Cl)cc2)o1)C(=O)c1c[nH]c2ccccc12 is ____.
60
